Overview of recorded DC50 for various compounds
molecular target: IRAK4 (Homo sapiens, UniProt Q9NWZ3); construct: endogenous in cells; host or cells: OCI-LY10; experiment: IRAK4 MSD Degradation in OCI-LY10; assay type: cell-based; settings: OCI-LY10 cells, 24 hrs incubation, read-out: IRAK4 degradation in OCI-LY10 at 24 hrs: DC50
Sequence (Q9NWZ3 whole entry): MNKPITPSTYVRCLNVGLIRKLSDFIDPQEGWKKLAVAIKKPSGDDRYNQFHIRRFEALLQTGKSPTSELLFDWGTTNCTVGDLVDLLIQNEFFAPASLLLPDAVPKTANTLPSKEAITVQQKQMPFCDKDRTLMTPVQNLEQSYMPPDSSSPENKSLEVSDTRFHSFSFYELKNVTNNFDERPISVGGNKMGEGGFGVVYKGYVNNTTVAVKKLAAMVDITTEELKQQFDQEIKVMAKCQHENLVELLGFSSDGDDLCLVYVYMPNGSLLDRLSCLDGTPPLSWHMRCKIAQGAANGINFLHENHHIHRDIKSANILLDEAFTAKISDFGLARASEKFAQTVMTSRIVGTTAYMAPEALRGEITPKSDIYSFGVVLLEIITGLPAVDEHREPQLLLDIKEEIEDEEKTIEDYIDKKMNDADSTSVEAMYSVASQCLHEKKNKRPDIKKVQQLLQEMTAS

As a guide, the following entries are already answered.
{"compound": "CC(C)(O)c1cc2nn([C@H]3CC[C@H](CN4CCC5(CC4)CC(Nc4cccc6c4C(=O)N(C4CCC(=O)NC4=O)C6=O)C5)CC3)cc2cc1NC(=O)c1cccc(C(F)(F)F)n1 (stereo partly drawn) [I-35]", "measuredQuantity": "DC50", "result": "< 50 nM"}
{"compound": "COc1cc2nc([C@H]3CC[C@H](CN4CC5(CC(CCNc6cccc7c6C(=O)N(C6CCC(=O)NC6=O)C7=O)C5)C4)CC3)oc2cc1NC(=O)c1cccc(C(F)(F)F)n1 (stereo partly drawn)", "measuredQuantity": "DC50", "result": "100 to 500 nM"}

Item: O=C1CCC(N2C(=O)c3cccc(NCCC4CC5(CCN(C[C@H]6CC[C@H](c7nc8cc(N9CCOCC9)c(NC(=O)c9cccc(C(F)(F)F)n9)cc8o7)CC6)CC5)C4)c3C2=O)C(=O)N1 (stereo partly drawn) | System: IRAK4 (Homo sapiens, UniProt Q9NWZ3) | DC50: 500 to 1000 nM

Measured values drawn from patent US12545659B2 for this set.
